- procedure.summary: stimulators of insulin release from INS-1E, primary screen, cell-based, 5 mM glucose, NPC library (AID 1117329); also: reference of the scale not given here
- experimental.parameters: rat INS-1E insulin secretion, at 10 µM, active compounds read high
Each entry below lists one item and its recorded insulin secretion stimulation value.
The reply should be a number in %, with the unit left off.

Observe how each entry below is paired with its result.
## Task Endpoint output: insulin secretion stimulation of NC(=O)CCCCC1CCSS1 (stereo unspecified) . Value?
## Result -0.6

## Task I would be grateful if you could share the reported insulin secretion stimulation for Cc1cc2c(OCC(CNC(C)(C)C)OC(=O)c3ccccc3)cccc2[nH]1 (stereo unspecified) .
## Result 38.9

## Task Query: insulin secretion stimulation; subject: Cc1ncc(C[n+]2csc(CCO)c2C)c(N)n1
## Result 3.8

New cases:
## Task What value of measured insulin secretion stimulation is listed for CN1C(=O)CC(c2ccccc2)C1=O (stereo unspecified) ?
## Result -0.7

## Task # input compound: CCOC(=O)[C@H](CCc1ccccc1)N[C@@H](C)C(=O)N1C(=O)N(C)C[C@H]1C(=O)O ; wanted: its insulin secretion stimulation
## Result 0

## Task Requested field: insulin secretion stimulation. Item: CN(c1nccc(=O)[nH]1)C1CCN(c2nc3ccccc3n2Cc2ccc(F)cc2)CC1
## Result 4.3

## Task What does the record list as insulin secretion stimulation for CC(=O)Oc1ccc2c(c1)CC[C@@H]1[C@@H]2CC[C@]2(C)[C@@H](O)CC[C@@H]12 ?
## Result 1.3

## Task Given the compound Clc1ccccc1CN1CCc2sccc2C1 , what is its reported insulin secretion stimulation?
## Result -2.1

## Task Requested field: insulin secretion stimulation. Item: Cc1c(-c2ccccc2)oc2c(C(=O)OCCN3CCCCC3)cccc2c1=O
## Result 2.9

## Task Name the recorded insulin secretion stimulation for COc1ccccc1O .
## Result 2.9

## Task // lookup insulin secretion stimulation for CCNC(=O)N1CCN(CCCC(c2ccc(F)cc2)c2ccc(F)cc2)CC1
## Result 1.1
